Biological target: PIM3 (Homo sapiens, UniProt Q86V86)
Test: KinaseGlo Pim3 ATP depletion assay
Assay type: biochemical
Method: KinaseGlo Pim3 ATP Depletion Assay The activity of PIM3 is measured using a luciferase-luciferin based ATP detection reagent to quantify ATP depletion resulting from kinase-catalyzed phosphoryl transfer to a peptide substrate. Compounds to be tested are dissolved in 100% DMSO and directly distributed into white 384-well plates at 0.5 μl per well. […] The stopped reaction is incubated for 10 minutes and the remaining ATP detected via luminescence on the Victor2 (Perkin Elmer).
observation_type: pIC50
Kindly note that pIC50 refers to -log10 of the concentration in mol/L and answer with the value alone.

Answered cases to consult:
[
  {
    "smi": "C[C@H]1O[C@@H](c2ccncc2NC(=O)c2nc(-c3c(F)cccc3F)c(F)cc2N)C[C@@H](O)[C@]1(C)O",
    "pIC50": 8.70
  },
  {
    "smi": "O=C(Nc1cnccc1[C@@H]1C[C@@H](O)[C@H](O)[C@@H](CO)O1)c1ccc(F)c(-c2c(F)cccc2F)n1",
    "pIC50": 6.82
  },
  {
    "smi": "CC[C@H]1O[C@@H](c2ccncc2NC(=O)c2c[nH]cc(-c3ccccc3)c2=O)C[C@@H](O)[C@@H]1O",
    "pIC50": 5.88
  }
]

**Q:** Query the reported pIC50 for PIM3 (Homo sapiens, UniProt Q86V86); item: C[C@H]1O[C@@H](c2ccncc2NC(=O)c2ccc(F)c(-c3c(F)cccc3F)n2)C[C@@H](O)[C@@]1(O)CO
**A:** 7.49

**Q:** Query the reported pIC50 for PIM3 (Homo sapiens, UniProt Q86V86); item: C[C@H]1O[C@@H](c2ccncc2NC(=O)c2nc(-c3ccccc3)cnc2N)C[C@@H](O)[C@]1(C)O
**A:** 8.52

**Q:** Query the reported pIC50 for PIM3 (Homo sapiens, UniProt Q86V86); item: O=C(Nc1cnccc1[C@H]1C[C@@H](O)[C@H](O)[C@@H](C2CC2)O1)c1ccc(F)c(-c2c(F)cccc2F)n1
**A:** 8.66

----------
target: PIM2 (Homo sapiens, UniProt Q9P1W9); test: KinaseGlo Pim2 ATP depletion assay; assay type: biochemical
Sequence (Q9P1W9 whole entry): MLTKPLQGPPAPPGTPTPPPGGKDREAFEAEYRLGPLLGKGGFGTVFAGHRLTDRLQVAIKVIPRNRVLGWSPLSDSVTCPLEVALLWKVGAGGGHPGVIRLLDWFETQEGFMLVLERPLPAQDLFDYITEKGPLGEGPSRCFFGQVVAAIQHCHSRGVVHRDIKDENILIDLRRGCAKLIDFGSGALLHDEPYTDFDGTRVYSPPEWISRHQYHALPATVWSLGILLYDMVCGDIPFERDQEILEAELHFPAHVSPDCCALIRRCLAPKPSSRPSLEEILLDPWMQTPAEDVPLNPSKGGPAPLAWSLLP
pIC50: −log10 of the molar value.
Rule: pIC50 of 7 or more gives true (1); anything lower gives false (0).

Field: example entries. Status: answers known.
[
  {
    "compound": "O=C(Nc1cnccc1[C@H]1C[C@@H](O)[C@H](O)[C@@H](CO)O1)c1ccc(F)c(-c2c(F)cccc2F)n1",
    "classification": "false (0)"
  },
  {
    "compound": "Nc1cnc(-c2c(F)cccc2F)nc1C(=O)Nc1cnccc1[C@@H]1C[C@H](N)[C@]2(O)CCC[C@@H]2O1",
    "classification": "false (0)"
  },
  {
    "compound": "NC(=O)C[C@H]1O[C@@H](c2ccncc2NC(=O)c2ccc(F)c(-c3c(F)cccc3F)n2)C[C@@H](O)[C@@H]1O [Example 142]",
    "classification": "false (0)"
  },
  {
    "compound": "O=C(Nc1cnccc1[C@H]1C[C@@H](O)[C@@]2(O)CCC[C@H]2O1)c1c[nH]cc(-c2ccccc2)c1=O",
    "classification": "false (0)"
  },
  {
    "compound": "N#CC[C@H]1O[C@@H](c2ccncc2NC(=O)c2ccc(F)c(-c3c(F)cccc3F)n2)C[C@@H](O)[C@@H]1O",
    "classification": "true (1)"
  },
  {
    "compound": "C[C@H]1O[C@@H](c2ccncc2NC(=O)c2ccc(F)c(-c3c(F)cccc3F)n2)C[C@H](O)[C@@H]1O",
    "classification": "true (1)"
  },
  {
    "compound": "C[C@@H]1O[C@H](c2ccncc2NC(=O)c2ccc(F)c(-c3c(F)cccc3F)n2)C[C@H](N)[C@H]1O",
    "classification": "true (1)"
  },
  {
    "compound": "CC[C@H]1O[C@@H](c2ccncc2NC(=O)c2nc(-c3ccccc3)ncc2N)C[C@@H](O)[C@@H]1O",
    "classification": "true (1)"
  },
  {
    "compound": "C[C@H]1[C@H](C)O[C@H](c2ccncc2NC(=O)c2ccc(F)c(-c3c(F)cccc3F)n2)C[C@@H]1O (stereo in doubt)",
    "classification": "true (1)"
  },
  {
    "compound": "C[C@H]1[C@H](C)O[C@H](c2ccncc2NC(=O)c2csc(-c3c(F)cccc3F)n2)C[C@@H]1O (stereo in doubt)",
    "classification": "false (0)"
  }
]

Now look at this one.
**Q:** Test whether the compound CC[C@]1(O)[C@H](O)C[C@H](c2ccncc2NC(=O)c2nc(-c3cnn(C)c3C)ccc2N)O[C@@H]1C records pIC50 of 7 or higher.
**A:** false (0)
